molecular target: T1, Human CD137 ECD (human); assay: single mutant vs template dBBDu183H
T1 construct: also called 4-1BB
T1 sequence (chain, as listed by the source limits assumed): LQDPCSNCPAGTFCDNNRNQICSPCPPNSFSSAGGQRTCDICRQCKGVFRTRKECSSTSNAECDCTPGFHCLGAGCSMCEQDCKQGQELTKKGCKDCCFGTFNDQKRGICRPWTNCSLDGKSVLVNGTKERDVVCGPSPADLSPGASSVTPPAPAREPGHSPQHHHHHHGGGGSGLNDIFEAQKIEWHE
result.type: fold change of affinity (fold)
Please respond with the number in fold and leave the unit unwritten.

Some binders with recorded fold change of affinity:
{"columns": ["binder", "fold change of affinity (fold)"],
 "data": [
  ["H183/L072 VH Q50F (antibody, name in Kabat numbering, V domains shown) VH: QVQLVESGGGLVQPGRSLRLSCAASGFTFSNAWMHWVRQAPGKGLEWVAFIKDKGNAYAAYYAPSVKGRFTISRDDSKNSIYLQMNSLKTEDTAVYYCHYVHYASASTVLPAFGVDAWGQGTTVTVSS VL: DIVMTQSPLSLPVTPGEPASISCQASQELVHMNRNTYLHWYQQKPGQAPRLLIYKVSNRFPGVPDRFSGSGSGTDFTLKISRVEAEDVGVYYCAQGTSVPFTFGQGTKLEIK", 2.6],
  ["H183/L072 VH G52cY (antibody, name in Kabat numbering, V domains shown) VH: QVQLVESGGGLVQPGRSLRLSCAASGFTFSNAWMHWVRQAPGKGLEWVAQIKDKYNAYAAYYAPSVKGRFTISRDDSKNSIYLQMNSLKTEDTAVYYCHYVHYASASTVLPAFGVDAWGQGTTVTVSS VL: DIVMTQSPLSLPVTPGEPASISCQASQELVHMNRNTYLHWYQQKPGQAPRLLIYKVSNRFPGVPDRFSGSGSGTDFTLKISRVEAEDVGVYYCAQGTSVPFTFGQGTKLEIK", 2],
  ["H183/L072 VH F27T (antibody, name in Kabat numbering, V domains shown) VH: QVQLVESGGGLVQPGRSLRLSCAASGTTFSNAWMHWVRQAPGKGLEWVAQIKDKGNAYAAYYAPSVKGRFTISRDDSKNSIYLQMNSLKTEDTAVYYCHYVHYASASTVLPAFGVDAWGQGTTVTVSS VL: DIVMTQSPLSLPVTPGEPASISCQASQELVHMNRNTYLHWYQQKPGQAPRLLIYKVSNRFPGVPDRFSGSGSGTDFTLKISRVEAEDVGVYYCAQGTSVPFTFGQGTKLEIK", 0.3],
  ["H183/L072 VH G52cH (antibody, name in Kabat numbering, V domains shown) VH: QVQLVESGGGLVQPGRSLRLSCAASGFTFSNAWMHWVRQAPGKGLEWVAQIKDKHNAYAAYYAPSVKGRFTISRDDSKNSIYLQMNSLKTEDTAVYYCHYVHYASASTVLPAFGVDAWGQGTTVTVSS VL: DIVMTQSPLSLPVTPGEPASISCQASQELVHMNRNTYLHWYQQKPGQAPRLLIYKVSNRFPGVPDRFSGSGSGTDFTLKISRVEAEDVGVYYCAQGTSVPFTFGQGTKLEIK", 1.3]
]}

// switching to the query binder
Query: Fill blank: measured fold change of affinity of the binder H183/L072 VH K52R (antibody, name in Kabat numbering, V domains shown) VH: QVQLVESGGGLVQPGRSLRLSCAASGFTFSNAWMHWVRQAPGKGLEWVAQIRDKGNAYAAYYAPSVKGRFTISRDDSKNSIYLQMNSLKTEDTAVYYCHYVHYASASTVLPAFGVDAWGQGTTVTVSS VL: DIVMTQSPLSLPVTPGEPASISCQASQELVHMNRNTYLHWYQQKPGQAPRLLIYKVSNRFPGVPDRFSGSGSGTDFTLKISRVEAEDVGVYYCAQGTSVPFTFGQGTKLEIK is ____.
Response: 0.2
